- protocol.summary: solvent given as SMILES
- measurement.conditions: in Cc1ccccc1
Recorded measurements of emission maximum, one per entry
assay.readout: emission maximum (nm)

| molecule | assay.readout | numeric.result |
| --- | --- | --- |
| CCCCCCCCCCCCC1(CCCCCCCCCCCC)c2cc(-c3ccc(C=C4C(=O)c5ccccc5C4=O)cc3)ccc2-c2ccc(-c3ccc(C=C4C(=O)c5ccccc5C4=O)cc3)cc21 | emission maximum | 490 |
| COC(=O)/C(C#N)=c1\s/c(=c2/s/c(=C(/C#N)C(=O)OC)c3cc(-c4ccc(OC)cc4)sc23)c2sc(-c3ccc(OC)cc3)cc12 | emission maximum | 680 |
| COc1cc(OC)cc(C2=C(c3cc(OC)c(OC)c(OC)c3)C3=Nc4c(-c5cc(OC)c(OC)c(OC)c5)c(-c5cc(OC)cc(OC)c5)c(-c5ccc(C(C)(C)C)cc5)n4[B-](F)(F)[N+]3=C2c2ccc(C(C)(C)C)cc2)c1 | emission maximum | 721 |
| CCCCCCc1ccc(/C=C/c2ccc(CCCCCC)s2)s1 | emission maximum | 416 |
| CC1(C)c2ccccc2N(c2ccc(-c3nc(-c4ccccc4)cc(-c4ccccc4)n3)cc2)c2ccccc21 | emission maximum | 454.83 |
| N#Cc1cc(N2c3ccccc3Sc3ccccc32)cc(N2c3ccccc3Sc3ccccc32)c1 | emission maximum | 536 |
| CC1(C)c2ccccc2N(c2ccccc2)c2ccc(-c3ccc(-c4ccc5c(c4)C(C)(C)c4ccccc4N5c4ccccc4)c4nsnc34)cc21 | emission maximum | 596.02 |
| CCOC(=O)CN1C(=O)C2=C(c3ccc(N4CCCCC4)cc3)N(CC(=O)OCC)C(=O)C2=C1c1ccc(N2CCCCC2)cc1 | emission maximum | 575 |
| N#Cc1cc(-n2c3ccccc3c3ccccc32)nc(-n2c3ccccc3c3ccccc32)n1 | emission maximum | 471 |
| Fc1c(F)c(F)c([B-]2(c3c(F)c(F)c(F)c(F)c3F)Oc3c(ccc4c5c(ccc34)C=[N+](c3ccccc3)[B-](c3c(F)c(F)c(F)c(F)c3F)(c3c(F)c(F)c(F)c(F)c3F)O5)C=[N+]2c2ccccc2)c(F)c1F | emission maximum | 580 |
| CCCC1(CCC)c2cc(-c3ccc(-c4ccccc4)cc3)ccc2-c2ccc(-c3ccc4c(c3)C(CCC)(CCC)c3cc(-c5ccc(-c6ccccc6)cc5)ccc3-4)cc21 | emission maximum | 402 |
| c1ccc(-c2nnc(-c3ccc(N4c5ccccc5N(c5ccccc5)c5ccccc54)cc3)n2-c2ccccc2)cc1 | emission maximum | 528 |
| c1ccc(C2CCN3COc4c5ccccc5c5c6c7c(c2c3c46)C(c2ccccc2)CCN7CO5)cc1 (centres undefined) | emission maximum | 565 |
| CN(C)c1ccc(/C=C2\CCCC2=O)cc1 | emission maximum | 424 |
